Values were extracted from patent US20210388087A1.

Target: T1, Human CD3eg linker (human)
T1 construct: single-chain construct; also called recombinant human CD3
T1 chain: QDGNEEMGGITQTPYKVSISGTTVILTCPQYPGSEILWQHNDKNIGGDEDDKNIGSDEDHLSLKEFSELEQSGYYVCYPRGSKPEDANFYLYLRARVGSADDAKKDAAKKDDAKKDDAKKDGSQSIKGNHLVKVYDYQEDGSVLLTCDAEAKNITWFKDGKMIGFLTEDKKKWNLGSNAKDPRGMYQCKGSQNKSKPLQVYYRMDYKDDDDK
Experiment: SPR, vs unmutated H183/L072
Quick rule for you: fold change of affinity at 2 fold or higher means Yes, lower means No.

Illustrative cases are given below, each with its answer.
{"columns": ["binder", "cat"],
 "data": [
  ["dBBDu183H P61W/dBBDu072L (antibody, name in Kabat numbering, V domains shown) VH: QVQLVESGGGLVQPGRSLRLSCAASGFTFSNAWMHWVRQAPGKGLEWVAQIKDKGNAYAAYYAWSVKGRFTISRDDSKNSIYLQMNSLKTEDTAVYYCHYVHYASASTVLPAFGVDAWGQGTTVTVSS VL: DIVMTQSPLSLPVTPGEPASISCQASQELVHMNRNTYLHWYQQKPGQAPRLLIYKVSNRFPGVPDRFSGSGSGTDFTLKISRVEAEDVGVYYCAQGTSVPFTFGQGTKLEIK", "No"],
  ["dBBDu183H V100iD/dBBDu072L (antibody, name in Kabat numbering, V domains shown) VH: QVQLVESGGGLVQPGRSLRLSCAASGFTFSNAWMHWVRQAPGKGLEWVAQIKDKGNAYAAYYAPSVKGRFTISRDDSKNSIYLQMNSLKTEDTAVYYCHYVHYASASTVLPAFGDDAWGQGTTVTVSS VL: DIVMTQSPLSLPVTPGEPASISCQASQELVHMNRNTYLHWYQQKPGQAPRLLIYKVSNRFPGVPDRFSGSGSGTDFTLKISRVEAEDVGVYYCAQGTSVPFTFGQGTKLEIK", "Yes"],
  ["dBBDu183H S100aV/dBBDu072L (antibody, name in Kabat numbering, V domains shown) VH: QVQLVESGGGLVQPGRSLRLSCAASGFTFSNAWMHWVRQAPGKGLEWVAQIKDKGNAYAAYYAPSVKGRFTISRDDSKNSIYLQMNSLKTEDTAVYYCHYVHYASAVTVLPAFGVDAWGQGTTVTVSS VL: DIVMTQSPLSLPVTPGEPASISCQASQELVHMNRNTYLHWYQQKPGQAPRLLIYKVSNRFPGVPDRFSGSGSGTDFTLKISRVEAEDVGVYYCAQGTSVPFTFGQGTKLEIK", "No"]
]}

Continue with the next binder.
Incoming: Given dBBDu183H L100dQ/dBBDu072L (antibody, name in Kabat numbering, V domains shown) VH: QVQLVESGGGLVQPGRSLRLSCAASGFTFSNAWMHWVRQAPGKGLEWVAQIKDKGNAYAAYYAPSVKGRFTISRDDSKNSIYLQMNSLKTEDTAVYYCHYVHYASASTVQPAFGVDAWGQGTTVTVSS VL: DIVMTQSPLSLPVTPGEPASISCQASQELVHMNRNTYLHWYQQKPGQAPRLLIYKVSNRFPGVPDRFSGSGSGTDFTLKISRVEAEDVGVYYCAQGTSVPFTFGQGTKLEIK , state whether its fold change of affinity is at least 2 fold.
Outgoing: No
